Reference for the values: ChEMBL document CHEMBL4613234

Assay: Ratio of IC50 for human HEK293 cells assessed as reduction in cell viability incubated for 48 hrs in presence of ROS scavenger pyruvate by Alamar blue assay to IC50 for human HEK293 cells assessed as reduction in cell viability incubated for 48 hrs in absence of ROS scavenger pyruvate by Alamar blue assay
Format: cell-based
Settings: read-out: Ratio IC50
measure-name: selectivity ratio at 48 h
Numbers only.

Incoming: Dear colleague, I am looking for the recorded selectivity ratio at 48 h of the following compound: `CN(Cc1cnc2nc(N)nc(NC(=O)OCc3ccc(B(O)O)cc3)c2n1)c1ccc(C(=O)N[C@@H](CCC(=O)O)C(=O)O)cc1`
Outgoing: 5

* * *

Test: Stability of compound in human HEK293 cells preincubated for 24 hrs followed by compound addition and subsequent removal of HEK293 cells in absence of ROS scavenger pyruvate
Format: ADME, cell-based
measure-name: t1/2 (h)
Answers are plain numbers, in h.

Incoming: Dear colleague, I am looking for the recorded t1/2 of the following molecule: `CN(Cc1cnc2nc(N)nc(NC(=O)OCc3ccc(B(O)O)cc3)c2n1)c1ccc(C(=O)N[C@@H](CCC(=O)O)C(=O)O)cc1`
Outgoing: 16.1

* * *

System: HeLa
Experiment: Cytotoxicity against human HeLa cells assessed as reduction in cell viability incubated for 48 hrs in absence of ROS scavenger pyruvate by Alamar blue assay
Type: cell-based
measure-name: pIC50
Numbers only, as −log10 of the molar value.

Incoming: Recorded pIC50 for `Nc1nc(N)c2nc(CN(Cc3ccc(B(O)O)cc3)c3ccc(C(=O)N[C@@H](CCC(=O)O)C(=O)O)cc3)cnc2n1` with HeLa, please?
Outgoing: 7.72

Incoming: Recorded pIC50 for `CN(Cc1cnc2nc(N)nc(NC(=O)OCc3ccc(B(O)O)cc3)c2n1)c1ccc(C(=O)N[C@@H](CCC(=O)O)C(=O)O)cc1` with HeLa, please?
Outgoing: 6.81

Incoming: Recorded pIC50 for `CN(Cc1cnc2nc(N)nc(N)c2n1)c1ccc(C(=O)N[C@@H](CCC(=O)N2CCSC2=O)C(=O)O)cc1` with HeLa, please?
Outgoing: 6.79

Incoming: Recorded pIC50 for `Nc1nc(N)c2nc(CNc3ccc(C(=O)N[C@@H](CCC(=O)O)C(=O)O)cc3)cnc2n1` with HeLa, please?
Outgoing: 8.08

As a next step, examine the molecule that follows.
Incoming: Recorded pIC50 for CN(Cc1cnc2nc(N)nc(N)c2n1)c1ccc(C(=O)N[C@@H](CCC(=O)O)C(=O)O)cc1 [METHOTREXATE] with HeLa, please?
Outgoing: 7.68

* * *

Experiment: Half life in human HEK293 cells in presence of paraquat and absence of ROS scavenger pyruvate
Type: ADME, cell-based
measure-name: half-life (days)
Numbers only, in days.

Incoming: Dear colleague, I am looking for the recorded half-life of the following compound: `CN(Cc1cnc2nc(N)nc(NC(=O)OCc3ccc(B(O)O)cc3)c2n1)c1ccc(C(=O)N[C@@H](CCC(=O)O)C(=O)O)cc1`
Outgoing: 2.63

* * *

System: HL-60
Test: Cytotoxicity against human HL60 cells assessed reduction in cell viability incubated for 48 hrs in presence of ROS scavenger pyruvate by Alamar blue assay
Assay type: cell-based
Details: HL-60, 48 h
Give IC50 for every item shown.
Please give the number followed by its unit.

// below: answered molecules
Incoming: Dear colleague, I am looking for the recorded IC50 of the following molecule: CN(Cc1cnc2nc(N)nc(N)c2n1)c1ccc(C(=O)N[C@@H](CCC(=O)O)C(=O)O)cc1 [METHOTREXATE]
Outgoing: 9.8 nM

Incoming: Dear colleague, I am looking for the recorded IC50 of the following molecule: `CN(Cc1cnc2nc(N)nc(NC(=O)OCc3ccc(B(O)O)cc3)c2n1)c1ccc(C(=O)N[C@@H](CCC(=O)O)C(=O)O)cc1`
Outgoing: 203 nM

Incoming: Dear colleague, I am looking for the recorded IC50 of the following molecule: `Nc1nc(N)c2nc(CNc3ccc(C(=O)N[C@@H](CCC(=O)O)C(=O)O)cc3)cnc2n1`
Outgoing: 3 nM

Incoming: Dear colleague, I am looking for the recorded IC50 of the following molecule: `Nc1nc(N)c2nc(CN(Cc3ccc(B(O)O)cc3)c3ccc(C(=O)N[C@@H](CCC(=O)O)C(=O)O)cc3)cnc2n1`
Outgoing: 38.3 nM

More entries:
Incoming: Dear colleague, I am looking for the recorded IC50 of the following molecule: `CN(Cc1cnc2nc(N)nc(N)c2n1)c1ccc(C(=O)N[C@@H](CCC(=O)N2CCSC2=O)C(=O)O)cc1`
Outgoing: 36 nM

* * *

Give half-life for every item shown.
Assay: Half life of compound in PBS buffer
Type: physicochemical

Incoming: Dear colleague, I am looking for the recorded half-life of the following compound: CN(Cc1cnc2nc(N)nc(N)c2n1)c1ccc(C(=O)N[C@@H](CCC(=O)O)C(=O)O)cc1 [METHOTREXATE]
Outgoing: > 24 h

As a next step, examine the compound that follows.
Incoming: Dear colleague, I am looking for the recorded half-life of the following compound: `CN(Cc1cnc2nc(N)nc(NC(=O)OCc3ccc(B(O)O)cc3)c2n1)c1ccc(C(=O)N[C@@H](CCC(=O)O)C(=O)O)cc1`
Outgoing: > 24 h

* * *

Assay: Permeability of compound across artificial lipid/oil/lipid tri-layer membrane by PAMPA assay
Give Papp for every item shown.

// below: answered compounds
Incoming: Dear colleague, I am looking for the recorded Papp of the following compound: `CN(Cc1cnc2nc(N)nc(NC(=O)OCc3ccc(B(O)O)cc3)c2n1)c1ccc(C(=O)N[C@@H](CCC(=O)O)C(=O)O)cc1`
Outgoing: < 1.5 ×10⁻⁶ cm/s

Incoming: Dear colleague, I am looking for the recorded Papp of the following compound: CN(Cc1cnc2nc(N)nc(N)c2n1)c1ccc(C(=O)N[C@@H](CCC(=O)O)C(=O)O)cc1 [METHOTREXATE]
Outgoing: < 1.5 ×10⁻⁶ cm/s

As a next step, examine the compound that follows.
Incoming: Dear colleague, I am looking for the recorded Papp of the following compound: `CN(Cc1cnc2nc(N)nc(NC(=O)OCc3ccccc3)c2n1)c1ccc(C(=O)N[C@@H](CCC(=O)O)C(=O)O)cc1`
Outgoing: < 1.5 ×10⁻⁶ cm/s

* * *

Experiment: Half life in rat plasma
Assay type: ADME, cell-free
measure-name: half-life (h)
One number for each entry, in h.

Incoming: Dear colleague, I am looking for the recorded half-life of the following molecule: `CN(Cc1cnc2nc(N)nc(NC(=O)OCc3ccc(B(O)O)cc3)c2n1)c1ccc(C(=O)N[C@@H](CCC(=O)O)C(=O)O)cc1`
Outgoing: 16.4

* * *

Test: Half life in human HEK293 cells in absence of ROS scavenger pyruvate
Type: ADME, cell-based
measure-name: half-life (h)
Give bare numbers, in h.

Incoming: Dear colleague, I am looking for the recorded half-life of the following compound: `CN(Cc1cnc2nc(N)nc(NC(=O)OCc3ccc(B(O)O)cc3)c2n1)c1ccc(C(=O)N[C@@H](CCC(=O)O)C(=O)O)cc1`
Outgoing: 107
